- System: involucrin (IVL)
- ASSAY INFO: 3D micro-epidermis model (EpiScreen): involucrin immunostaining
- Type: cell-based, human
- ASSAY CONTEXT: 30 nM; supplementary data
PROPERTY LABEL: IVL 30 nM (%)
Quick reminder: number only, in %, skip the unit.

// known answers, use as guide
# COMPOUND, UNIT OF MEASURE, IVL 30 nM
measured = [
    ("COc1cc2ncnc(Nc3ccc(F)c(Cl)c3)c2cc1NC(=O)/C=C/CN1CCCCC1 [Dacomitinib]", "%", 60),
    ("C=CC(=O)Nc1cc(Nc2nccc(-c3cn(C)c4ccccc34)n2)c(OC)cc1N(C)CCN(C)C [Osimertinib]", "%", 7),
    ("CS(=O)(=O)CCNCc1ccc(-c2ccc3ncnc(Nc4ccc(OCc5cccc(F)c5)c(Cl)c4)c3c2)o1 [Lapatinib]", "%", 30),
]

Query: I'd like to know its IVL 30 nM. The compound in question is COc1cc2ncnc(Nc3ccc(F)c(Cl)c3)c2cc1OCCCN1CCOCC1 [Gefitinib]
Reply: 23

Query: # get_value(readout='IVL 30 nM', item= CN(C)C/C=C/C(=O)Nc1cc2c(Nc3ccc(F)c(Cl)c3)ncnc2cc1O[C@H]1CCOC1 [Afatinib] )
Reply: 12

Query: Requested read-out: IVL 30 nM. Entry: C#Cc1cccc(Nc2ncnc3cc(OCCOC)c(OCCOC)cc23)c1 [Erlotinib]
Reply: 22
